Quick reference for EC50 among some compounds
# system: human recombinant mGluR5 (Homo sapiens)
# Construct: tetracycline removed 3-7 days before the assay
# Sequence (P41594 21-1212): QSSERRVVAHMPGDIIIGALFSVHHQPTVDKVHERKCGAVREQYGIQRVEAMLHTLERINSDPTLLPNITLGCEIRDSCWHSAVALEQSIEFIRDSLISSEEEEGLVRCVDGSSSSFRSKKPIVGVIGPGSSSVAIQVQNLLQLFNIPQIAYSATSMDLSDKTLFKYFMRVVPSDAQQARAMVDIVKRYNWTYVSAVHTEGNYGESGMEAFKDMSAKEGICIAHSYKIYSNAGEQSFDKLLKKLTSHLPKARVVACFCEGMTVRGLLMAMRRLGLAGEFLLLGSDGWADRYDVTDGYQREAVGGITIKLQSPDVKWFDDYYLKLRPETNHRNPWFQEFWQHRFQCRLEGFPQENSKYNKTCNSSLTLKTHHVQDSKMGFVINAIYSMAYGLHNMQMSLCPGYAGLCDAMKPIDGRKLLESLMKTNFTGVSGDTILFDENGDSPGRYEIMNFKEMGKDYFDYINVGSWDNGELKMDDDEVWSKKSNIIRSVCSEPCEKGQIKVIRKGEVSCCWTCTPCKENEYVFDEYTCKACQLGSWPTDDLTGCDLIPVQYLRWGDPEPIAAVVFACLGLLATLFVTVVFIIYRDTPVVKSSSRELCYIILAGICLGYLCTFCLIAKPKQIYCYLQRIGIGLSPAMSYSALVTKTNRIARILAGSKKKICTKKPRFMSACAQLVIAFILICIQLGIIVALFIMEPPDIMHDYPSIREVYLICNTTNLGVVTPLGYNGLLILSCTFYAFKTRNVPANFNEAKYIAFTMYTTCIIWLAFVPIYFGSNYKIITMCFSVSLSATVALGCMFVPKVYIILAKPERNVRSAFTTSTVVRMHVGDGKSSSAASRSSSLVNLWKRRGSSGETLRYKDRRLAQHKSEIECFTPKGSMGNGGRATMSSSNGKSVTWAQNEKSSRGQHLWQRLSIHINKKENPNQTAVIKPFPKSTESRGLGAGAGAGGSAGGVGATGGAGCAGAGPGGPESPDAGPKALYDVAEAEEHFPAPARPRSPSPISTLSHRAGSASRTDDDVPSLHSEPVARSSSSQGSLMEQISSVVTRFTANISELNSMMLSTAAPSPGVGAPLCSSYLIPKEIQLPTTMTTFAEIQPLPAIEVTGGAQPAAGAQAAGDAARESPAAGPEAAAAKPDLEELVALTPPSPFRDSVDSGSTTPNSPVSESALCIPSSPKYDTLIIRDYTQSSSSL
# assay procedure: positive modulation of mGluR5, calcium based FLIPR assay in HEK 293 cells
# condition: HEK 293 cell line expressing human recombinant mGluR5; EC50 of the modulation of the glutamate response (glutamate approx. 5% basal stimulation); peak height of Ca release fluorescence signal
Write down the numeric answer in nM and omit the unit.

Illustrative cases are given below, each with its answer.
COc1cnnc(N2CCN(C(=O)Cn3nc(-c4ccc(F)c(C)c4)nc3-c3ccccc3)CC2)c1 ... 192
CCCCCc1nc(-c2ccc(F)c(C)c2)nn1CC(=O)N1CCN(c2cc(OC)ccn2)CC1 ... 92
CCCCc1nc(-c2ccc(F)c(C)c2)nn1CC(=O)N1CCN(c2ncccn2)CC1 ... 390
N#Cc1cccc(N2CCN(C(=O)Cn3nc(-c4ccc(F)cc4)nc3-c3ccc(F)cc3)CC2)c1 ... 350
COc1cc(N2CCN(C(=O)Cn3nc(-c4ccc(OC(F)F)cc4)nc3-c3ccccc3)CC2)ncn1 ... 19
O=C(Cn1nc(-c2ccc(F)cc2)nc1-c1ccc(F)cc1)N1CCN(c2cc(NC3CC3)ncn2)CC1 ... 430
COc1cc(N2CCN(C(=O)Cn3nc(-c4ccc(F)c(C)c4)nc3C3CCCC(C)C3)CC2)ncn1 (centres unmarked) ... 713
COc1cccc(-c2nc(-c3ccc(F)cc3)n(CC(=O)N3CCN(c4cc(C)ccn4)CC3)n2)c1 ... 38

Data request: Using the record for O=C(Cn1nc(-c2ccc(F)cc2)nc1-c1ccc(F)cc1)N1CCN(c2cc(OCCN3CCOCC3)ncn2)CC1 , state its measured EC50.
Data returned: 110

Data request: Please give the documented EC50 of Cc1cccc(-c2nc(-c3ccccc3)nn2CC(=O)N2CCN(c3ncccn3)CC2)c1
Data returned: 233

Data request: Give me measured EC50, please, for this compound: CN1CCN(c2cc(N3CCN(C(=O)Cn4nc(-c5ccc(F)cc5)nc4-c4ccc(F)cc4)CC3)ncn2)CC1=O
Data returned: 822

Data request: Supply EC50 value. Item: Cc1cc(-c2nc(C3CCCCC3)n(CC(=O)N3CCN(c4ncccn4)CC3)n2)ccc1F
Data returned: 101

Data request: Identify measured EC50 associated with COc1cccc(-c2nc(C(C)C)n(CC(=O)N3CCN(c4ncccn4)CC3)n2)c1
Data returned: 1520
